Tested on: SF-539 CNS
assay_info: NCI tumour cell line growth inhibition, 48 h
Exercise: state measured TGI for each of the compounds provided.

Before answering, review these 2 worked examples.
| compound | TGI |
| --- | --- |
| COC(=O)C(c1ccc(OC)cc1)N1C(=O)[C@@H](NC(=O)c2ccccc2)[C@H]1[C@@H](C)O (stereo partly drawn) | > 100 µM |
| O=c1[nH]nc(Cc2ccccc2)n1/N=C/c1ccc([N+](=O)[O-])cc1 | > 100 µM |

Now look at this one.
C/C(=N/O)c1sc(-c2nc(C)c(/C(C)=N\O)s2)nc1C tested on SF-539 CNS gave TGI: > 100 µM

###

Tested on: U251 CNS
assay_info: NCI tumour cell line growth inhibition, 48 h
reported_endpoint: TGI

Some solved entries appear below for comparison.
| molecule | reported_endpoint | recorded_measurement |
| --- | --- | --- |
| C=C1C(=O)C2=CC1CCC(=O)C1(C)CCC(OC(C)=O)C(C)(C)C1CC2O (stereo not drawn) | TGI | > 47.1 µM |
| CCCN(CCC)c1ccc(C=O)c(C)c1 | TGI | > 100 µM |
| NC(N)=NS(=O)(=O)c1ccc(NC(=O)c2cccc3c(N)c4ccccc4nc23)cc1 | TGI | > 100 µM |

Could you tell me TGI for each of these molecules? They are listed below.
1. CC(C)Cn1cnc2c(Cl)nc3ccccc3c21
2. CC1(C)CCCCCCCCCC2CC2CCC(C)(C)C1=O (stereo not drawn)
3. COc1cc(C2c3cc4c(cc3OC(NCCO)C2C)OCO4)cc(OC)c1O (stereo not drawn)
4. CCOC(=O)C1(N)CC1

1. > 100 µM
2. 33 µM
3. 87.8 µM
4. > 100 µM

Please go through the list and note TGI for each molecule.
1. Cc1ccc(Sc2ccccc2N)cc1
2. [Cu+2].[NH-]C(CC(=O)O)C(=O)O.[NH-]C(CC(=O)O)C(=O)O (stereo not drawn)
3. Nc1cc(Cl)ccc1SSc1ccc(Cl)cc1N

1: > 100 µM; 2: > 100 µM; 3: 15.4 µM

###

Tested on: U251 CNS
assay_info: NCI tumour cell line growth inhibition, 48 h
reported_endpoint: TGI

| compound | target_or_test_system | recorded_measurement |
| --- | --- | --- |
| CC(C)(C)n1c(=O)n2n(c1=O)C1c3cccc4cccc(c34)C2C2c3cccc4cccc(c34)C1n1c(=O)n(C(C)(C)C)c(=O)n12 | U251 CNS | > 100 µM |
| COc1ccc2c(c1)C(c1cc(OC)c3c(c1)OCO3)C1=C(COC1=O)N2 (stereo not drawn) | U251 CNS | > 47.9 µM |

--- query ---
Reported U251 CNS TGI for item Cc1ccccc1C(C(=O)NC1CCCCC1)N(C(=O)CNc1ccc(C#N)cc1)c1cccc(F)c1 (stereo not drawn) was > 100 µM

###

System: RXF 393 renal
assay_info: NCI tumour cell line growth inhibition, 48 h
For each entry below, report its TGI value.

| molecule | recorded_measurement |
| --- | --- |
| Cc1cn(C2CCN(CC3COC(C)(C)O3)O2)c(=O)[nH]c1=O (centres undefined) | > 100 µM |
| O=[N+]([O-])c1ccc2c(c1)C(c1ccccc1Cl)=Nc1c(n[nH]c1-c1cccnc1)N2 | > 25 µM |
| CCOC(=O)c1cc(NS(=O)(=O)c2ccc(C)cc2)cc(C(=O)OCC)c1 | > 100 µM |

Working through the 3 molecules below one at a time, give TGI for each.
1. COc1cc(CNc2cnc3ccc(N)cc3n2)cc(OC)c1OC
2. O=C1/C(=C/c2ccc(O)c(O)c2)CC/C1=C\c1ccc(O)c(O)c1
3. O=C(CC1(O)C(=O)Nc2c(Cl)cc(Cl)cc21)c1ccc(F)cc1 (centres undefined)

["> 100 µM", "19.3 µM", "88.3 µM"]

Hi there! I need TGI for each item below, if you can.
1. Cc1cc(=O)n2c3c(c4c(cc13)c(CN(C)C)cc(=O)n4C)OC2
2. C=CCCCC1(C)CCNC1=S (centres undefined)
3. CCCCCCCCCCCCCCCCN(CC)CC
4. CC1=N[C@@](C)(C2CC3C=CC2C3=O)COC1=O (some centres undefined)
5. CN(C)CCS(=O)(=O)Nc1cc(-c2ccc3ncc(C#N)c(Nc4ccc(F)c(Cl)c4)c3c2)cnc1Cl
6. O=C1C=C(c2ccccc2)O/C1=C\C(=O)c1ccc(Cl)cc1
7. CC(=O)OCC1OC(n2ncc(=O)[nH]c2=O)C(OC(C)=O)C1OC(C)=O (centres undefined)
8. COc1cc(/C=C2\N=C(c3ccccc3)N(c3nc4ccc(Sc5ccccc5)cc4[nH]3)C2=O)cc(OC)c1OC

1: 28.7 µM; 2: > 100 µM; 3: 4.2 µM; 4: > 100 µM; 5: 0.348 µM; 6: 32.6 µM; 7: > 100 µM; 8: > 100 µM

For each of the molecules below, note its TGI.
1. COc1cccc(NC(=O)CC(=O)NN2C(=O)/C(=C/c3ccc(N(CCC#N)CCC#N)cc3)N=C2c2cc([N+](=O)[O-])ccc2Cl)c1
2. COC(=O)Cn1c(=O)oc2nc(-c3ccccc3)cc(C(F)(F)F)c21

1. > 100 µM
2. > 100 µM

I'm hoping you can list TGI for every molecule here, please.
1. COc1ccc(/C=C2\CCC(CCN3CCOCC3)C2=O)cc1 (centres undefined)
2. CCN(CC)Cc1cc(Nc2ccnc3ccc4nn(C)nc4c23)ccc1O
3. CN1C(=O)C2(c3ccccc31)C1CC3C(CO1)C1C2C3(CO)CN1C#N (centres undefined)
4. CN(C)c1ccc(/C=C(\NC(=O)c2ccccc2)C(=O)Nc2cccc(C(=O)NCCCO)c2)cc1

> 100 µM
21.6 µM
> 100 µM
> 100 µM

Give TGI for each listed item.
1. CCOC(=O)CN(c1ccccc1)c1nc(=[N+](C)C)ss1
2. CC(=O)NC1COC(COC(=O)CCCCCCCCCCNC(=O)c2ccc([N+](=O)[O-])c3c(=O)c4ccccc4[nH]c23)C(O)C1OC(C)C(=O)NC(C(=O)NC(CCC(N)=O)C(=O)OCc1ccccc1)C(C)C (centres undefined)
3. O=C(c1ccccc1)c1nc2ccc(C(F)(F)F)cc2nc1N1CCN(c2ccccc2)CC1
4. O=C(CSSCC(=O)Nc1ccc(Br)cc1)Nc1ccc(Br)cc1

1. > 100 µM
2. 23.2 µM
3. > 100 µM
4. 33.2 µM
